Measured Ki values are reported for all entries that follow.
Target: Ectonucleotide pyrophosphatase/phosphodiesterase family member 1 (Homo sapiens, UniProt P22413)
Sequence (P22413 whole entry): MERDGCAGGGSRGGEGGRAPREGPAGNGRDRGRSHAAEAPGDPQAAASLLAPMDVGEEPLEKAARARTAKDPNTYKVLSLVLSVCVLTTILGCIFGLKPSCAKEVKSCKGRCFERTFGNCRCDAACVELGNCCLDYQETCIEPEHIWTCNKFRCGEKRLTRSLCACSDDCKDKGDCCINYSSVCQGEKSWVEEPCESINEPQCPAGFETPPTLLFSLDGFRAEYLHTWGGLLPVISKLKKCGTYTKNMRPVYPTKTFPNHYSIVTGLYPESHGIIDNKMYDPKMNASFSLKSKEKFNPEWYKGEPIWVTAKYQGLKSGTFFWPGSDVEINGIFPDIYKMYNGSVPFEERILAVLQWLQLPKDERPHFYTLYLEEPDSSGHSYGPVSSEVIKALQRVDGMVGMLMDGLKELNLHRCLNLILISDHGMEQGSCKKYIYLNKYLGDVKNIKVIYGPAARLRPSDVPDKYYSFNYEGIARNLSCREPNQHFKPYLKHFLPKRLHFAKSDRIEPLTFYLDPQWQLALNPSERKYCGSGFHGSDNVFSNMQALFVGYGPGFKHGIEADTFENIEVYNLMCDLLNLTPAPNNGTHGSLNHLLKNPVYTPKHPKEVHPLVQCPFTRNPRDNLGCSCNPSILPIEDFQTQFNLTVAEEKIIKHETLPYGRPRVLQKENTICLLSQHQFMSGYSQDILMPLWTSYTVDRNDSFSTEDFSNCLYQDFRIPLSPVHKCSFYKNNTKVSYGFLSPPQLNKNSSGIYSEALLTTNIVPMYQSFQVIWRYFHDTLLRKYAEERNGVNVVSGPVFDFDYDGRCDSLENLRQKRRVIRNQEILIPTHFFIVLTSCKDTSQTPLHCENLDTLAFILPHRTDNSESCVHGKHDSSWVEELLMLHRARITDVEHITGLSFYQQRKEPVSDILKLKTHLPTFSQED
Assay: Binding affinity to human ENPP1 assessed as inhibition constant
quantity: Ki (nM)

{"columns": ["smiles entry", "quantity", "measurement unit", "censoring qualifier", "numeric readout"],
 "data": [
  ["O=C(/C=C/c1ccc(O)c(O)c1)O[C@H](Cc1ccc(O)c(O)c1)C(=O)O", "Ki", "nM", "=", 26.9],
  ["COc1cccc2c(N3CCC(CCP(=O)(O)O)CC3)ncnc12", "Ki", "nM", "<", 2]
]}

// provenance: ChEMBL document CHEMBL5512629
